Measured Endpoint: IC50
Units required after the number.

Check UniProtKB Q07343 data and give IC50 for COc1cc2c(cc1OC)-c1cc(=Nc3c(C)cc(C)cc3C)n(CCNC(N)=O)c(=O)n1CC2 . 110 nM

Recall the reported IC50 of CCOc1cc2c(cc1OC)-c1cc(=Nc3c(C)cc(C)cc3C)n(CCN3CCOC3=O)c(=O)n1CC2 on UniProtKB Q07343 and write it down. 876 nM

---

Measured Endpoint: pIC50
# pIC50 is unitless: minus log10 of the molar concentration; print number only

Identify measured pIC50 obtained with PDE3A (Homo sapiens, UniProt Q14432) for COc1cc2c(cc1OC)-c1cc(=Nc3c(C)cc(C)cc3C)n(CCNC(N)=O)c(=O)n1CC2 [RPL554] . 9.60
